procedureDetails: MTS assay, eight cell lines
testSettings: Vero, HeLa, CV-1PD, TM-1, DP-9, NIKS and W12E cells
pEC50: −log10 of the molar value. Peptide text beside a SMILES is read from it.
observationType: pEC50

Prompt: Any idea what its pEC50 is? The molecule is CC(C)C[C@H](NC(=O)[C@H](C)NC(=O)[C@H](CC(C)C)NC(=O)[C@H](CC(C)C)NC(=O)[C@@H](NC(=O)[C@H](C)NC(=O)[C@@H]1CCCN1C(=O)[C@H](CC(C)C)NC(=O)[C@H](CC(C)C)NC(=O)[C@H](C)NC(=O)[C@@H](NC(=O)[C@H](C)NC(=O)[C@H](C)NC(=O)[C@H](CCCCN)NC(=O)[C@H](CCCCN)NC(=O)[C@H](CCCNC(=N)N)NC(=O)[C@@H](N)CCCNC(=N)N)C(C)C)C(C)C)C(=O)N[C@@H](CC(C)C)C(=O)N[C@@H](C)C(=O)N1CCC[C@H]1C(=O)O [EB] (H-RRKKAAVALLPAVLLALLAP-OH)
Completion: < 4.00
